# ASSAY_METHOD_TEXT: protein stability index of a GFP-peptide fusion (GPS, HEK-293T) (PSI 1-6); higher = more stable;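 further: 24-mer peptide tiles fused after GFP, lentivirally expressed, FACS-sorted into six equal bins by GFP/DsRed ratio, decoded by Illumina sequencing, PSI is the read-weighted mean bin number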
# COND: treatment: MLN4924 1 uM, 8 h; c terminus: a fixed tail appended
READOUT_TYPE: protein stability index

# count of solved cases: 2
1. SSGKLICSRTTGYQILTLEKDQEQ [GMCL1]
4.37
2. AIQDQLPRLQQLLKTLEEGLEGLE [FANCE]
3.68

For this sequence ( DFMELGRSIPDTQLEQVIESQKAN [ACSBG2] ), measured protein stability index is 4.99

Short answer for DGLDGISVGSYLDTLADDVPGHQT [LURAP1L] : protein stability index was 4.86

protein stability index reported for this sequence LSRCEFQRAKCKDPQLEIAYRGNC [SMOC2] : 3.14

The measured protein stability index associated with KCEQPFFWNIKQMWDTKTLGLRQH [WDFY1] reads 2.38

protein stability index reported for this sequence GEQPEPGEAAAGGAAEEARRLEQR [ACBD3] : 5.44

Query HIGHVGWDPNTGFDLNNLDPELKN [WASL] yields protein stability index of 4.47

// protein stability index lookup, sequence = RKVVQSLEQTAREILTLLQGVHQG [TSN] , result: 2.81
